The reported numbers originate from the supplement of paper PMC8728848.

glycan array binding signal (z-score) values for the binders below.
biological target: Neu5Gc(a2-6)Gal(b1-4)GlcNAc; assay: glycan array binding signal (z-score within array); higher = stronger binding; settings: glycan notation: IUPAC condensed, linker removed
This excerpt belongs to a sample that is enriched for the strongest signals.
Give the value as a plain number.

{"binder": "LecRKVI.2 (protein) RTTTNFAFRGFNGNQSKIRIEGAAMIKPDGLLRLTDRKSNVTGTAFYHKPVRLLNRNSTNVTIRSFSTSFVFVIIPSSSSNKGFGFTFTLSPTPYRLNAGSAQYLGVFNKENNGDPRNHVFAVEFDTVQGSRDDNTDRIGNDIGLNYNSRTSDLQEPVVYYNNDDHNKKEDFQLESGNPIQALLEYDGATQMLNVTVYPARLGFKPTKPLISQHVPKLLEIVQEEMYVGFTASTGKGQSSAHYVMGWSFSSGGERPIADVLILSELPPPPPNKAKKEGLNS", "glycan array binding signal (z-score)": -0.356}

# input for lookup
(Q) Supply recorded glycan array binding signal (z-score) for SEX4 (Arabidopsis thaliana), Q944A8 (protein) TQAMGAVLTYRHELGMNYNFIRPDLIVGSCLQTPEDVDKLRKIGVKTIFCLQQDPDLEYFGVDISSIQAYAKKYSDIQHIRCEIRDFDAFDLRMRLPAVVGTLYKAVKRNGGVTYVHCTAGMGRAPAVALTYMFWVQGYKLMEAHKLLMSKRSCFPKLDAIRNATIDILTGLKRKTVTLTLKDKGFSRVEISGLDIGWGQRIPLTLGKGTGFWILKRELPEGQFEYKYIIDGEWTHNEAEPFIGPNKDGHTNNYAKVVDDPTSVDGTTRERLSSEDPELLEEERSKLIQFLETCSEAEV here.
(A) 0.489
